Provenance of the data: ChEMBL document CHEMBL5335868

Assay Overview: Chemical stability of compound at pH 7.4 assessed as compound remaining at 10 uM incubated for 24 hrs by HPLC-MS/MS analysis
Assay type: physicochemical
Measurement Parameters: buffer, read-out: Stability
Consider the following compounds; for each one, report its remaining at 24 h, 10 µM.
Numbers only, in %.

Cc1cc(OCC(=O)Nc2ccc(N3CCC(c4ccccc4)CC3)cc2)c2cc(Cl)ccc2n1 :: 100
Cc1cc(OCC(=O)Nc2ccc(N3CCC(c4ccccc4)CC3)cc2)c2cc(Br)ccc2n1 :: 93.9
COc1ccc2nc(C)cc(OCC(=O)Nc3ccc(N4CCC(c5ccc(OC(F)(F)F)cc5)CC4)cc3)c2c1 :: 85.3

Form field: reported remaining at 24 h, 10 µM of `COc1ccc2nc(C)cc(OCC(=O)Nc3ccc(N4CCC(c5ccccc5)CC4)cc3)c2c1` 96.3

----------
Assay Overview: Solubility of compound at pH 1.2 at 1 mg incubated for 4 hrs by LC analysis
Format: physicochemical
Consider the following molecules; for each one, report its solubility at 4 h.
One number for each entry, in µM.

COc1ccc2nc(C)cc(OCC(=O)Nc3ccc(N4CCC(c5ccc(OC(F)(F)F)cc5)CC4)cc3)c2c1 :: 20

Alright, here's another molecule for you.
Form field: reported solubility at 4 h of `COc1ccc2nc(C)cc(OCC(=O)Nc3ccc(N4CCC(c5ccccc5)CC4)cc3)c2c1` 410

----------
System: Mycobacterium tuberculosis
Assay Overview: Antibacterial activity against Mycobacterium tuberculosis H37Rv assessed as bacterial growth inhibition measured after 7 days by resazurin based assay
Assay type: functional
Measurement Parameters: 168 h, time 7 day
Consider the following compounds; for each one, report its MIC.
One number for each entry, in µM.

# annotated cases, reported MIC shown
CCc1cc(OCC(=O)Nc2ccc(N3CCC(c4ccc(OC(F)(F)F)cc4)CC3)cc2)c2cc(Cl)ccc2n1 :: 0.07
CCc1cc(OCC(=O)Nc2ccc(N3CCC(c4ccc(OC(F)(F)F)cc4)CC3)cc2)c2cc(OC)ccc2n1 :: 2.1
NNC(=O)c1ccncc1 :: 2.3
COc1ccc2nc(C)cc(OCC(=O)Nc3ccc(N4CCCCC4)cc3)c2c1 :: 0.09

Form field: reported MIC of `O=C(COc1cc(C(F)(F)F)nc2ccc(Cl)cc12)Nc1ccc(N2CCC(c3ccccc3)CC2)cc1` 74

----------
Assay Overview: Metabolic stability in rat liver microsomes assessed as half life at 1 mg/ml measured for 30 mins in presence of […] by HPLC-MS/MS analysis
Type: ADME, Microsome
Consider the following molecules; for each one, report its half-life.
Answers are plain numbers, in min.

# annotated cases, reported half-life shown
Cc1cc(OCC(=O)Nc2ccc(N3CCC(c4ccccc4)CC3)cc2)c2cc(Br)ccc2n1 :: 76.4
COc1ccc2nc(C)cc(OCC(=O)Nc3ccc(N4CCC(c5ccccc5)CC4)cc3)c2c1 :: 7.1
Cc1cc(OCC(=O)Nc2ccc(N3CCC(c4ccccc4)CC3)cc2)c2cc(Cl)ccc2n1 :: 177

Alright, here's another molecule for you.
Form field: reported half-life of `COc1ccc2nc(C)cc(OCC(=O)Nc3ccc(N4CCC(c5ccc(OC(F)(F)F)cc5)CC4)cc3)c2c1` 21

----------
Assay Overview: Solubility of compound at pH 7.4 at 1 mg incubated for 4 hrs by LC analysis
Assay type: physicochemical
Metric Name: solubility at 4 h (µM)
Give bare numbers, in µM.

# annotated cases, reported solubility at 4 h shown
Cc1cc(OCC(=O)Nc2ccc(N3CCC(c4ccccc4)CC3)cc2)c2cc(Cl)ccc2n1 :: 4030
COc1ccc2nc(C)cc(OCC(=O)Nc3ccc(N4CCC(c5ccccc5)CC4)cc3)c2c1 :: 2220
Cc1cc(OCC(=O)Nc2ccc(N3CCC(c4ccccc4)CC3)cc2)c2cc(Br)ccc2n1 :: 2640

Form field: reported solubility at 4 h of `COc1ccc2nc(C)cc(OCC(=O)Nc3ccc(N4CCC(c5ccc(OC(F)(F)F)cc5)CC4)cc3)c2c1` 2190

----------
Assay Overview: Chemical stability of compound at pH 9.1 assessed as compound remaining at 10 uM incubated for 24 hrs by HPLC-MS/MS analysis
Format: physicochemical
Measurement Parameters: buffer, read-out: Stability
Metric Name: remaining at 24 h, 10 µM (%)
Give bare numbers, in %.

Cc1cc(OCC(=O)Nc2ccc(N3CCC(c4ccccc4)CC3)cc2)c2cc(Br)ccc2n1 :: 100

Could you tell me remaining at 24 h, 10 µM for each of these compounds? They are listed below.
1. COc1ccc2nc(C)cc(OCC(=O)Nc3ccc(N4CCC(c5ccccc5)CC4)cc3)c2c1
2. Cc1cc(OCC(=O)Nc2ccc(N3CCC(c4ccccc4)CC3)cc2)c2cc(Cl)ccc2n1
3. COc1ccc2nc(C)cc(OCC(=O)Nc3ccc(N4CCC(c5ccc(OC(F)(F)F)cc5)CC4)cc3)c2c1

[22.6, 99, 96.8]

----------
Assay Overview: Permeability of compound at 10 uM measured after 5 hrs by PAMPA assay
Type: ADME
Measurement Parameters: read-out: permeability
Consider the following compounds; for each one, report its Papp at 5 h, 10 µM.
Numbers only, in ×10⁻⁶ cm/s.

# annotated cases, reported Papp at 5 h, 10 µM shown
COc1ccc2nc(C)cc(OCC(=O)Nc3ccc(N4CCC(c5ccc(OC(F)(F)F)cc5)CC4)cc3)c2c1 :: 0.16
COc1ccc2nc(C)cc(OCC(=O)Nc3ccc(N4CCC(c5ccccc5)CC4)cc3)c2c1 :: 0.001
Cc1cc(OCC(=O)Nc2ccc(N3CCC(c4ccccc4)CC3)cc2)c2cc(Br)ccc2n1 :: 0.35

Alright, here's another compound for you.
Form field: reported Papp at 5 h, 10 µM of `Cc1cc(OCC(=O)Nc2ccc(N3CCC(c4ccccc4)CC3)cc2)c2cc(Cl)ccc2n1` 0.49

----------
Assay Overview: Cytotoxicity against human HepG2 cells incubated for 72 hrs by NRU assay
Type: toxicity, cell-based
Consider the following compounds; for each one, report its CC50 at 72 h.

COc1ccc2nc(C)cc(OCC(=O)Nc3ccc(N4CCC(c5ccccc5)CC4)cc3)c2c1 :: > 10 µM

Could you tell me CC50 at 72 h for each of these compounds? They are listed below.
1. COc1ccc2nc(C)cc(OCC(=O)Nc3ccc(N4CCC(c5ccc(OC(F)(F)F)cc5)CC4)cc3)c2c1
2. Cc1cc(OCC(=O)Nc2ccc(N3CCC(c4ccccc4)CC3)cc2)c2cc(Cl)ccc2n1
3. Cc1cc(OCC(=O)Nc2ccc(N3CCC(c4ccccc4)CC3)cc2)c2cc(Br)ccc2n1

> 10 µM
> 10 µM
> 10 µM

----------
Consider the following compounds; for each one, report its remaining at 24 h, 10 µM.
Assay Overview: Chemical stability of compound at pH 1.2 assessed as compound remaining at 10 uM incubated for 24 hrs by HPLC-MS/MS analysis
Format: physicochemical
Measurement Parameters: buffer, read-out: Stability
Give bare numbers, in %.

# annotated cases, reported remaining at 24 h, 10 µM shown
COc1ccc2nc(C)cc(OCC(=O)Nc3ccc(N4CCC(c5ccccc5)CC4)cc3)c2c1 :: 52.4
Cc1cc(OCC(=O)Nc2ccc(N3CCC(c4ccccc4)CC3)cc2)c2cc(Br)ccc2n1 :: 100
Cc1cc(OCC(=O)Nc2ccc(N3CCC(c4ccccc4)CC3)cc2)c2cc(Cl)ccc2n1 :: 90.6

Alright, here's another compound for you.
Form field: reported remaining at 24 h, 10 µM of `COc1ccc2nc(C)cc(OCC(=O)Nc3ccc(N4CCC(c5ccc(OC(F)(F)F)cc5)CC4)cc3)c2c1` 100

----------
Test system: Mycobacterium tuberculosis
Assay Overview: Antibacterial activity against Mycobacterium tuberculosis H37Rv assessed as bacterial growth inhibition measured after 7 days by resazurin based assay
Assay type: functional
Measurement Parameters: 168 h, time 7 day
Metric Name: MIC (µM)
Numbers only, in µM.

# annotated cases, reported MIC shown
Cc1cc(OCC(=O)Nc2ccc(N3CCC(c4ccccc4)CC3)cc2)c2cc(Cl)ccc2n1 :: 0.02
CCc1cc(OCC(=O)Nc2ccc(N3CCC(c4ccccc4)CC3)cc2)c2cc(Cl)ccc2n1 :: 0.04
COc1ccc2nc(C)cc(OCC(=O)Nc3ccc(N4CCC(c5ccc(OC(F)(F)F)cc5)CC4)cc3)c2c1 :: 0.02

Could you tell me MIC for each of these compounds? They are listed below.
1. CCc1cc(OCC(=O)Nc2ccc(N3CCC(c4ccc(OC(F)(F)F)cc4)CC3)cc2)c2cc(Br)ccc2n1
2. Cc1cc(OCC(=O)Nc2ccc(N3CCC(c4ccc(OC(F)(F)F)cc4)CC3)cc2)c2cc(Br)ccc2n1
3. COc1ccc2nc(C)cc(OCC(=O)Nc3ccc(N4CCC(c5ccccc5)CC4)cc3)c2c1
4. Cc1cc(OCC(=O)Nc2ccc(N3CCC(c4ccc(OC(F)(F)F)cc4)CC3)cc2)c2cc(Cl)ccc2n1
5. COc1ccc2nc(C(F)(F)F)cc(OCC(=O)Nc3ccc(N4CCC(c5ccccc5)CC4)cc3)c2c1
6. Cc1cc(OCC(=O)Nc2ccc(N3CCC(c4ccccc4)CC3)cc2)c2cc(Br)ccc2n1
7. CCc1nc2ccc(Cl)cn2c1C(=O)NCc1ccc(N2CCC(c3ccc(OC(F)(F)F)cc3)CC2)cc1

1. 7.9
2. 0.06
3. 0.02
4. 0.14
5. 0.1
6. 0.02
7. 0.009

Could you tell me MIC for each of these compounds? They are listed below.
1. O=C(COc1cc(C(F)(F)F)nc2ccc(Br)cc12)Nc1ccc(N2CCC(c3ccccc3)CC2)cc1
2. CCc1cc(OCC(=O)Nc2ccc(N3CCC(c4ccccc4)CC3)cc2)c2cc(Br)ccc2n1

1. 34.2
2. 0.07

Find the measured MIC: item `CCc1cc(OCC(=O)Nc2ccc(N3CCC(c4ccccc4)CC3)cc2)c2cc(OC)ccc2n1` , target or system Mycobacterium tuberculosis. 0.08
